studySystem: the molecule itself
testDescription: native gel or EMSA; self-association; BN-PAGE and Western blot of proteins purified by affinity chromatography; bands of monomer, dimer and tetramer as percent of total
parameter: binding result

# protein, result
measured = [
    ("recombinant human GCDH variant R227P, MBP fusion (enzyme, glutaryl-CoA dehydrogenase (GCDH), human cDNA in pMAL-c2X, patient variant; No cleavage of MBP is described; also called c.680G > C; source: could not be purified by size-exclusion chromatography; not shown: MBP, N-terminal, kept) RPEFDWQDPLVLEEQLTTDEILIRDTFRTYCQERLMPRILLANRNEVFHREIISEMGELGVLGPTIKGYGCAGVSSVAYGLLARELERVDSGYRSAMSVQSSLVMHPIYAYGSEEQRQKYLPQLAKGELLGCFGLTEPNSGSDPSSMETRAHYNSSNKSYTLNGTKTWITNSPMADLFVVWAPCEDGCIRGFLLEKGMRGLSAPRIQGKFSLRASATGMIIMDGVEVPEENVLPGASSLGGPFGCLNNARYGIAWGVLGASEFCLHTARQYALDRMQFGVPLARNQLIQKKLADMLTEITLGLHACLQLGRLKDQDKAAPEMVSLLKRNNCGKALDIARQARDMLGGNGISDEYHVIRHAMNLEAVNTYEGTHDIHALILGRAITGIQAFTASK", "binds"),
    ("recombinant human GCDH variant R138G, MBP fusion (enzyme, glutaryl-CoA dehydrogenase (GCDH), human cDNA in pMAL-c2X, patient variant; No cleavage of MBP is described; also called c.412A > G; not shown: MBP, N-terminal, kept) RPEFDWQDPLVLEEQLTTDEILIRDTFRTYCQERLMPRILLANRNEVFHREIISEMGELGVLGPTIKGYGCAGVSSVAYGLLARELERVDSGYGSAMSVQSSLVMHPIYAYGSEEQRQKYLPQLAKGELLGCFGLTEPNSGSDPSSMETRAHYNSSNKSYTLNGTKTWITNSPMADLFVVWARCEDGCIRGFLLEKGMRGLSAPRIQGKFSLRASATGMIIMDGVEVPEENVLPGASSLGGPFGCLNNARYGIAWGVLGASEFCLHTARQYALDRMQFGVPLARNQLIQKKLADMLTEITLGLHACLQLGRLKDQDKAAPEMVSLLKRNNCGKALDIARQARDMLGGNGISDEYHVIRHAMNLEAVNTYEGTHDIHALILGRAITGIQAFTASK", "binds"),
    ("recombinant human GCDH variant V400M, MBP fusion (enzyme, glutaryl-CoA dehydrogenase (GCDH), human cDNA in pMAL-c2X, patient variant; No cleavage of MBP is described; also called c.1198G > A; not shown: MBP, N-terminal, kept) RPEFDWQDPLVLEEQLTTDEILIRDTFRTYCQERLMPRILLANRNEVFHREIISEMGELGVLGPTIKGYGCAGVSSVAYGLLARELERVDSGYRSAMSVQSSLVMHPIYAYGSEEQRQKYLPQLAKGELLGCFGLTEPNSGSDPSSMETRAHYNSSNKSYTLNGTKTWITNSPMADLFVVWARCEDGCIRGFLLEKGMRGLSAPRIQGKFSLRASATGMIIMDGVEVPEENVLPGASSLGGPFGCLNNARYGIAWGVLGASEFCLHTARQYALDRMQFGVPLARNQLIQKKLADMLTEITLGLHACLQLGRLKDQDKAAPEMVSLLKRNNCGKALDIARQARDMLGGNGISDEYHMIRHAMNLEAVNTYEGTHDIHALILGRAITGIQAFTASK", "binds"),
]
